# target of assay: Lipopolysaccharide (LPS)
# experimental details: Displacement of dansyl-PMB from LPS by isothermal titration calorimetry
Where a SMILES comes first, the peptide text is derived from it. Bridges are numbered along the chain shown (N, C = ends). [ ]: non-standard residue; d: D form. The star is where a group is joined. Nonanoyl = CCCCCCCCC(=O)*; Dab = NCC[C@H](N)C(=O)O
Below: a set of entries, each annotated with reported IC50.
Numeric only. Scale: µM

CC(C)C[C@@H]1NC(=O)[C@@H](Cc2ccccc2)NC(=O)[C@H](CCN)NC(=O)[C@@H](NC(=O)[C@H](CCN)NC(=O)[C@@H](NC(=O)[C@H](CN)NC(=O)O)[C@@H](C)O)CCNC(=O)[C@H]([C@@H](C)O)NC(=O)[C@H](CCN)NC(=O)[C@H](CCN)NC1=O
14

# ---- query molecule ----
IC50 lookup needed for CCCCCCCCC(=O)N[C@@H](CCN)C(=O)N[C@H](C(=O)N[C@@H](CCN)C(=O)N[C@H]1CCNC(=O)[C@H]([C@@H](C)O)NC(=O)[C@H](CCN)NC(=O)[C@H](CCN)NC(=O)[C@H](CC(C)C)NC(=O)[C@@H](Cc2ccccc2)NC(=O)[C@H](CCN)NC1=O)[C@@H](C)O [POLYMYXIN B5] (Nonanoyl-[Dab]T[Dab][Dab][Dab][dF]L[Dab][Dab]T; lactam 4-C) , thanks.
6

---

# Test system: Pseudomonas aeruginosa
# experimental details: Antimicrobial activity against Pseudomonas aeruginosa
# Assay type: functional, organism-based
readout: IC50 (µg/mL)
Numeric only. Scale: µg/mL

CCC(C)CCCCC(=O)N[C@@H](CCNc1ccc([N+](=O)[O-])cc1[N+](=O)[O-])C(=O)N[C@@H](C(=O)N[C@@H](CCNc1ccc([N+](=O)[O-])cc1[N+](=O)[O-])C(=O)N[C@H]1CCNC(=O)[C@@H]([C@@H](C)O)NC(=O)[C@H](CCNc2ccc([N+](=O)[O-])cc2[N+](=O)[O-])NC(=O)[C@H](CCNc2ccc([N+](=O)[O-])cc2[N+](=O)[O-])NC(=O)[C@H](CC(C)C)NC(=O)[C@@H](Cc2ccccc2)NC(=O)[C@H](CCN)NC1=O)[C@@H](C)O (some centres not stated)
73

# ---- query molecule ----
# query: IC50 | item CCC(C)CCCCC(=O)N[C@@H](CCNc1cc(N)c([N+](=O)[O-])cc1[N+](=O)[O-])C(=O)N[C@@H](C(=O)N[C@@H](CCNc1cc(N)c([N+](=O)[O-])cc1[N+](=O)[O-])C(=O)N[C@H]1CCNC(=O)[C@@H]([C@@H](C)O)NC(=O)[C@H](CCNc2cc(N)c([N+](=O)[O-])cc2[N+](=O)[O-])NC(=O)[C@H](CCNc2cc(N)c([N+](=O)[O-])cc2[N+](=O)[O-])NC(=O)[C@H](CC(C)C)NC(=O)[C@@H](Cc2ccccc2)NC(=O)[C@H](CCN)NC1=O)[C@@H](C)O (some centres not stated) | system: Pseudomonas aeruginosa
68

---

# target of assay: Lipopolysaccharide (LPS)
# experimental details: Displacement of dansyl-PMB from LPS by isothermal titration calorimetry
# condition label: read-out: IC50
readout: pIC50
Bear in mind: pIC50 is minus log10 of a mol/L concentration; give just that figure.

Reference set (5 entries):
CC(C)C[C@@H]1NC(=O)[C@@H](Cc2ccccc2)NC(=O)[C@H](CCCCN)NC(=O)CN(C(=O)[C@H](CCCCN)NC(=O)[C@@H](N)[C@@H](C)O)CCCCNC(=O)[C@@H]([C@H](C)O)NC(=O)[C@H](CCCCN)NC(=O)[C@H](CCCCN)NC1=O
4.46
CC(C)C[C@@H]1NC(=O)[C@@H](Cc2ccccc2)NC(=O)[C@H](CCCN)NC(=O)CN(C(=O)[C@H](CCCN)NC(=O)[C@@H](N)[C@@H](C)O)CCCNC(=O)[C@@H]([C@H](C)O)NC(=O)[C@H](CCCN)NC(=O)[C@H](CCCN)NC1=O
4.60
CC(C)C[C@@H]1NC(=O)[C@@H](Cc2ccccc2)NC(=O)[C@H](CCCCN)NC(=O)[C@@H](NC(=O)[C@H](CCCCN)NC(=O)[C@@H](N)[C@@H](C)O)CCNC(=O)[C@@H]([C@H](C)O)NC(=O)[C@H](CCN)NC(=O)[C@H](CCN)NC1=O
4.85
CC(C)C[C@@H]1NC(=O)[C@@H](Cc2ccccc2)NC(=O)[C@H](CCCCN)NC(=O)[C@@H](NC(=O)[C@H](CCCCN)NC(=O)[C@@H](N)[C@@H](C)O)CCNC(=O)[C@H]([C@@H](C)O)NC(=O)[C@H](CCCCN)NC(=O)[C@H](CCCCN)NC1=O
4.52
CC(C)C[C@@H]1NC(=O)[C@@H](Cc2ccccc2)NC(=O)[C@H](CCN)NC(=O)[C@@H](NC(=O)[C@H](CCN)NC(=O)[C@@H](N)[C@@H](C)O)CCNC(=O)[C@H]([C@@H](C)O)NC(=O)[C@H](CCCCN)NC(=O)[C@H](CCCCN)NC1=O
4.92

pIC50 lookup needed for C[C@@H]1NC(=O)[C@@H](Cc2ccccc2)NC(=O)[C@H](CCN)NC(=O)[C@@H](NC(=O)[C@H](CCN)NC(=O)[C@@H](N)[C@@H](C)O)CCNC(=O)[C@H]([C@@H](C)O)NC(=O)[C@H](CCN)NC(=O)[C@H](CCN)NC1=O , thanks.
4.92

pIC50 lookup needed for CC(C)C[C@@H]1NC(=O)[C@@H](Cc2ccccc2)NC(=O)[C@H](CN)NC(=O)[C@@H](NC(=O)[C@H](CN)NC(=O)[C@@H](N)[C@@H](C)O)CNC(=O)[C@H]([C@@H](C)O)NC(=O)[C@H](CN)NC(=O)[C@H](CN)NC1=O , thanks.
4.52

pIC50 lookup needed for CC(C)C[C@@H]1NC(=O)[C@@H](Cc2ccccc2)NC(=O)[C@H](CCN)NC(=O)[C@H](CCN)NC(=O)[C@H](NC(=O)[C@@H](N)[C@@H](C)O)CCNC(=O)[C@H]([C@@H](C)O)NC(=O)[C@H](CCN)NC(=O)[C@H](CCN)NC1=O , thanks.
5.10

pIC50 lookup needed for CC(C)C[C@@H]1NC(=O)[C@@H](Cc2ccccc2)NC(=O)[C@H](CCN)NC(=O)[C@@H](NC(=O)[C@H](CCN)NC(=O)[C@@H](N)[C@@H](C)O)CCNC(=O)[C@H]([C@@H](C)O)NC(=O)[C@H](CCN)NC(=O)[C@H](CCN)NC1=O (stereo in doubt; 202) [POLYMYXIN B NONAPEPTIDE] , thanks.
5.10

pIC50 lookup needed for CC(C)C[C@@H]1NC(=O)[C@@H](Cc2ccc(O)cc2)NC(=O)[C@H](CCN)NC(=O)[C@@H](NC(=O)[C@H](CCN)NC(=O)[C@@H](N)[C@@H](C)O)CCNC(=O)[C@H]([C@@H](C)O)NC(=O)[C@H](CCN)NC(=O)[C@H](CCN)NC1=O , thanks.
4.60

pIC50 lookup needed for CC(C)C[C@@H]1NC(=O)[C@@H](Cc2ccccc2)NC(=O)[C@H](CCCCN)NC(=O)[C@@H](NC(=O)[C@H](CCCCN)NC(=O)[C@@H](N)[C@@H](C)O)CCNC(=O)[C@H]([C@@H](C)O)NC(=O)[C@H](CCN)NC(=O)[C@H](CCN)NC1=O , thanks.
4.82

pIC50 lookup needed for CC(C)C[C@@H]1NC(=O)[C@@H](Cc2c[nH]c3ccccc23)NC(=O)[C@H](CCN)NC(=O)[C@@H](NC(=O)[C@H](CCN)NC(=O)[C@@H](N)[C@@H](C)O)CCNC(=O)[C@H]([C@@H](C)O)NC(=O)[C@H](CCN)NC(=O)[C@H](CCN)NC1=O , thanks.
5.40

pIC50 lookup needed for C[C@@H](O)[C@H](N)C(=O)N[C@@H](CCN)C(=O)N[C@H]1CCNC(=O)[C@H]([C@@H](C)O)NC(=O)[C@H](CCN)NC(=O)[C@H](CCN)NC(=O)[C@H](Cc2ccccc2)NC(=O)[C@@H](Cc2ccccc2)NC(=O)[C@H](CCN)NC1=O , thanks.
5.30

pIC50 lookup needed for CC(C)C[C@@H]1NC(=O)[C@@H](Cc2ccccc2)NC(=O)[C@H](CCN)NC(=O)[C@@H](NC(=O)[C@H](CCN)NC(=O)[C@@H](N)[C@@H](C)O)CCNC(=O)[C@H]([C@@H](C)O)NC(=O)[C@H](CCN)NC(=O)[C@H](CCN)NC1=O (stereo in doubt; 193) [POLYMYXIN B NONAPEPTIDE] , thanks.
5.60

pIC50 lookup needed for CC(C)C[C@@H]1NC(=O)[C@@H](Cc2ccccc2)NC(=O)[C@H](CC(=N)N)NC(=O)[C@@H](NC(=O)[C@H](CC(=N)N)NC(=O)[C@@H](N)[C@@H](C)O)CCNC(=O)[C@H]([C@@H](C)O)NC(=O)[C@H](CC(=N)N)NC(=O)[C@H](CC(=N)N)NC1=O , thanks.
5.42

Reference source for all entries: ChEMBL document CHEMBL1156251
